Reported Binding Signal (fold over 6E7 parental antibody) values are given for each entry in this list.
tested on: T1, human TREM2 (triggering receptor expressed on myeloid cells 2) (human) (UniProt Q9NZC2)
T1 sequence (looked up): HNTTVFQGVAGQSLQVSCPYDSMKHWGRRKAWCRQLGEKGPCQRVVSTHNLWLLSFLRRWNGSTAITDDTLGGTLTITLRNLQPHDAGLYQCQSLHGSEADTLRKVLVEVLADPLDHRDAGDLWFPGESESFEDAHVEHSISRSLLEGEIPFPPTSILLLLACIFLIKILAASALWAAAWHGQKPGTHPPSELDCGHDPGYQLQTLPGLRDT
run description: 2nd screen, 100 nM Ab
assay readout: Binding Signal (fold over 6E7 parental antibody) (fold)

binder	assay result
6E7 antibody affinity modulation variant V83 (antibody, V domains shown) VH: EVQLVQSGAEVKKPGESLKISCKGSGYSFTSYWIAWVRQMPGKGLEWMGIIYPGDSDTRYSPSFQGQVTISADKSISTAYLQWSSLKASDTAMYFCARQRTFYYDSSDYFDYWGQGTLVTVSS VL: DIQMTQSPSSVSASVGDRVTITCRASQGISSWLAWYQQKPGKAPKLLIYAASSLQNGVPSRFSGSGSGTDFTLTISSLQPEDFATYFCQQAVSFPRTFGQGTKLEIK	0.29
6E7 antibody affinity modulation variant V31 (antibody, V domains shown) VH: EVQLVQSGAEVKKPGESLKISCKGSGYSFTSYWIAWVRQMPGKGLEWMGIIYPGDSETRYSPSFQGQVTISADKSISTAYLQWSSLKASDTAMYFCARQRTFYYDSSDYFDYWGQGTLVTVSS VL: DIQMTQSPSSVSASVGDRVTITCRASQGISSWLAWYQQKPGKAPKLLIYAASSLQNGVPSRFSGSGSGTDFTLTISSLQPEDFATYFCQQADSFPRTFGQGTKLEIK	0.73
6E7 antibody affinity modulation variant V23 (antibody, V domains shown) VH: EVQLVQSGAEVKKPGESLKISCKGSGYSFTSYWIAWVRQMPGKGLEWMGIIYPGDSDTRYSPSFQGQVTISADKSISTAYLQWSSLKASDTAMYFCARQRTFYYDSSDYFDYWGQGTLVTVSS VL: DIQMTQSPSSVSASVGDRVTITCRASQGISSWLAWYQQKPGKAPKLLIYAASSLQNGVPSRFSGSGSGTDFTLTISSLQPEDFATYFCQQADSFPLTFGQGTKLEIK	0.4
